Source listed as patent US20260216138A1.

Tested on: Akt-pS473
Assay: Akt-pS473 western blotting in NSCLC cells (A549, H358, H520, H1299)
Format: cell-based
Details: NSCLC cells; read-out: IC50 values to inhibit Akt-pS473 signals
Method: Cells were harvested and lysed in EBC buffer (50 mM Tris pH 7.5, 120 mM NaCl, 0.5% NP-40) supplemented with protease inhibitor cocktail (EDTA-free, mini-tablet) (Bimake) and phosphatase inhibitor cocktail (Bimake) by rotating in the cold room for 10 min followed by high-speed centrifugation at 4° C. The protein concentrations in supernatants of whole cell lysates were measured by NanoDrop OneC using the Bio-Rad Bradford protein assay reagent. […]
readout.name: IC50

Could you tell me which IC50 is on file for Cc1cc(NC(=O)c2cnn(C)c2C(=O)Nc2cc(C)nn2C2CCCC2)n(C2CCCC2)n1 ?
1 to 10 µM

---

Molecular target: UniProtKB Q6GQQ9
Sequence (Q6GQQ9 56-446): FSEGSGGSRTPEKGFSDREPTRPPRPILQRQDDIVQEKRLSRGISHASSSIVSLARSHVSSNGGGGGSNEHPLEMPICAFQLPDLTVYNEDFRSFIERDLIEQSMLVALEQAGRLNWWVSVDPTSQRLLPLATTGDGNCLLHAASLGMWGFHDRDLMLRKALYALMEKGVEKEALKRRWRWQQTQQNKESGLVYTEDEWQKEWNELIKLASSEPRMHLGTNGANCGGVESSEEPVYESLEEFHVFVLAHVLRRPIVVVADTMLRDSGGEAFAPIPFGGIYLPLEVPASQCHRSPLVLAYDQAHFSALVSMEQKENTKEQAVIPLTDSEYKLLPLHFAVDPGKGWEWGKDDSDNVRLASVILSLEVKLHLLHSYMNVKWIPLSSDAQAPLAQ
pIC50: −log10 of the molar value.
readout.name: pIC50

Please give the measured pIC50 for this molecule: Cc1cc(NC(=O)c2cnn(C)c2C(=O)Nc2cc(C)nn2C2CCCC2)n(C2CCCC2)n1
~4.40

---

System: NSCLC cells
Test: NSCLC cell growth
Assay type: cell-based
Conditions: read-out: IC50 values to suppress NSCLC cell growth
readout.name: IC50

What IC50 value was documented for this compound, Cc1cc(NC(=O)c2cnn(C)c2C(=O)Nc2cc(C)nn2C2CCCC2)n(C2CCCC2)n1 ?
~2.5 µM
